- tgt: T1, NpF2164g6 (1052–1206), N-terminal truncation (phycocyanobilin (PCB) chromophore linked to Cys90 (construct numbering); 15N label for NMR)
- T1 chain: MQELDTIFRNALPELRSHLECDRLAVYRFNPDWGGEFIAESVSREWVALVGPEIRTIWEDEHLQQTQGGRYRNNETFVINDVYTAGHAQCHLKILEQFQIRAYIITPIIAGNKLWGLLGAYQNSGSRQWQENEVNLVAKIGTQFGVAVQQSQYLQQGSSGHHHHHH
- protocol_summary: light state (Pg), thermal reversion
pKd: −log10 of the molar value.
observation_type: pKd

Consider the binder BNp-Red-1.0 (binder of NpF2164g6-Red state) (designed binder) MKLATIDQWLLKNAKEDAIAELKKAGITSDAYFNLINDAFDVDYVNYRKNKILKAHAGSSGLEHHHHHH and give its measured pKd.
< 3.74
